- Protocol details: basal RPMI8226 viability, no added stimulus, profiling panel, cell-based, calcein-AM fluorescence, 48 h, PK04 Diversity Set (AID 1166);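 also: cells grown under basal conditions without added stimulus; test concentration not given here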
- Protocol conditions: RPMI8226 myeloma viability, higher = more signal
Class assignment keyed on z-score, ranges bin 1 (below -0.2), bin 2 (-0.2 to below 0.3), bin 3 (0.3 or more)

Recorded results for 8 molecules are shown here.
{"Molecule": "CC(C)(C)C(=O)N[C@@H](c1ccc(Cl)cc1)[C@]1(C)C[C@H]1C1CCCCC1", "Label value": "bin 1"}
{"Molecule": "CC1(C)[C@@H]2CC(C(O)C3C=CC4C(=O)N(c5ccccc5)C(=O)C4N3Nc3ccccc3)=C[C@H]1C2 (some centres undefined)", "Label value": "bin 1"}
{"Molecule": "COCCCNC(=O)C1N=C(c2ccc(OCCCO)cc2)N(c2ccccc2)O1 (centres undefined)", "Label value": "bin 3"}
{"Molecule": "C#CCNC(=O)[C@H](Cc1ccccc1)NC(=O)CCC(=O)O", "Label value": "bin 2"}
{"Molecule": "COc1cc2c(cc1O)C=[N+](Cc1cccc(OC(F)(F)F)c1)CC2", "Label value": "bin 3"}
{"Molecule": "C=C(/C(=C/C[C@@H](OC(C)=O)c1ccc(OCCO)cc1)c1cnc2ccccc2c1)C(C)C", "Label value": "bin 3"}
{"Molecule": "CC(=O)N1Cc2ccccc2C[C@@]2(COC(c3ccc(OCCCO)cc3)=N2)C1=O", "Label value": "bin 2"}
{"Molecule": "COc1ccc(CCNC(=O)[C@@]2(Sc3ccc(C)cc3)CC(=O)N(C3CCCCC3)[C@@H]2c2ccc(CO)cc2I)cc1", "Label value": "bin 1"}

# input for lookup
Prompt: Kindly state the category for this molecule: CC1CC/C=C\[C@H]2OC34C=CCN(c5ccc(Cl)cc5)C(=O)[C@H]3N(CCO)C(=O)[C@]4(C)C2C(=O)O1 (some centres undefined)
Completion: bin 2

---

- Tested on: Fibrinogen (Alexa647-labelled)
- Protocol details: fibrinogen binders on compound microarrays, profiling panel, artefact control for SMM control-protein annotation, biochemical, small-molecule microarray, 635/667 nm fluorescence (AID 1131);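 also: z-score merges 667 nm fluorescence with per-spot signal-to-noise over triplicate slides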
- Protocol conditions: fibrinogen-A647 binding fluorescence, higher = more signal
// map composite z-score onto a label; ranges low: < -0.03; moderate: ≥ -0.03 and < 0.8; high: ≥ 0.8

{"Compound": "COC(=O)C=C(CC(O)c1cccc(Cl)c1)OC (configuration not stated)", "Label value": "moderate"}
{"Compound": "O=C1[C@H]2C=C(Br)[C@H](C[C@@H]2c2ccccc2)[C@@]12CO2", "Label value": "low"}
{"Compound": "COC(=O)[C@@]1(Cc2ccc(F)cc2)[C@H]2c3cc(C(=O)N(C)C)n(Cc4nc5ccccc5[nH]4)c3C[C@H]2CN1C(=O)c1ccccc1", "Label value": "high"}

Prompt: Band assignment needed for `CN(C)CCCNC(=O)[C@@]1(c2ccc([N+](=O)[O-])cc2)CC(=O)N(C2CCCCC2)[C@@H]1c1ccc(CO)cc1I` please.
Completion: moderate

Prompt: Bin? CCCCN1CC=CC23O[C@@H]4/C=C\CCC(C)OC(=O)C4[C@H]2C(=O)N(CCCCCO)[C@@H]3C1=O (some centres not stated)
Completion: low

Prompt: For this compound, which bin applies? `[N-]=[N+]=NCc1ccccc1C[C@]1(C(=O)N2CCOCC2)N=C(c2ccc(OCCCO)cc2)O[C@H]1c1ccccc1N=[N+]=[N-]`
Completion: high

Prompt: Class? Entry: `COC(=O)[C@@]1(Cc2ccc(OC)cc2)[C@H]2c3cc(C(=O)N4CCCC4)n(Cc4ccccc4)c3C[C@H]2CN1C(=O)c1ccccc1`
Completion: high

Prompt: Class? Entry: CCCCCN1CC=CC23O[C@@H]4/C=C\CCCOC(=O)C4[C@H]2C(=O)N(CCCO)[C@@H]3C1=O (some centres not stated)
Completion: low
